Listed next: entries and their corresponding cytotoxicity at 4 h, 100 µM.
# method-description: MTT: Cell Damaging and Protecting Effect Test
# Assay type: cell-based, male Japanese White rabbit
# measurement-context: rabbit, gastric mucosa cells, final concentration 10^-4 M, smaller value is better, read-out: cell damaging rate (MTT)
parameter-measured: cytotoxicity at 4 h, 100 µM (%)

[
  {
    "molecule": "CCN1CCCC1CNC(=O)c1cc(OC)c(OCC=C(C)C)c(OC)c1 (centres unmarked)",
    "parameter-measured": "cytotoxicity at 4 h, 100 µM",
    "unit-of-measure": "%",
    "reported": 12
  },
  {
    "molecule": "CCN1CCCC1CNC(=O)c1cccnc1OCC=C(C)C (centres unmarked)",
    "parameter-measured": "cytotoxicity at 4 h, 100 µM",
    "unit-of-measure": "%",
    "reported": -15
  },
  {
    "molecule": "CCN1CCCC1CNC(=O)c1cc(F)ccc1OC/C=C(\\C)CCC=C(C)C (centres unmarked)",
    "parameter-measured": "cytotoxicity at 4 h, 100 µM",
    "unit-of-measure": "%",
    "reported": 23
  },
  {
    "molecule": "CCN1CCCC1CNC(=O)c1cc(OC)ccc1OC/C=C(\\C)CCC=C(C)C (centres unmarked)",
    "parameter-measured": "cytotoxicity at 4 h, 100 µM",
    "unit-of-measure": "%",
    "reported": 21
  },
  {
    "molecule": "CCN1CCCC1CNC(=O)c1ccc(OC)cc1OC/C=C(\\C)CCC=C(C)C (centres unmarked)",
    "parameter-measured": "cytotoxicity at 4 h, 100 µM",
    "unit-of-measure": "%",
    "reported": 4
  },
  {
    "molecule": "CCN1CCCC1CNC(=O)c1cc(OCC=C(C)C)ccc1OCC=C(C)C (centres unmarked)",
    "parameter-measured": "cytotoxicity at 4 h, 100 µM",
    "unit-of-measure": "%",
    "reported": 34
  },
  {
    "molecule": "CCN1CCCC1CNC(=O)c1ccc(OCC=C(C)C)c(OCC=C(C)C)c1 (centres unmarked)",
    "parameter-measured": "cytotoxicity at 4 h, 100 µM",
    "unit-of-measure": "%",
    "reported": 28
  },
  {
    "molecule": "CCN1CCCC1CNC(=O)c1ccc(OCC=C(C)C)cc1OCC=C(C)C (centres unmarked)",
    "parameter-measured": "cytotoxicity at 4 h, 100 µM",
    "unit-of-measure": "%",
    "reported": 9
  },
  {
    "molecule": "CCN1CCCC1CNC(=O)c1ccc(OCC=C(C)C)cc1 (centres unmarked)",
    "parameter-measured": "cytotoxicity at 4 h, 100 µM",
    "unit-of-measure": "%",
    "reported": -14
  },
  {
    "molecule": "CCN1CCCC1CNC(=O)c1cc(OC)c(OC)c(OCC=C(C)C)c1 (centres unmarked)",
    "parameter-measured": "cytotoxicity at 4 h, 100 µM",
    "unit-of-measure": "%",
    "reported": -3
  },
  {
    "molecule": "CCN1CCCC1CNC(=O)c1ccc(OCC=C(C)C)nc1 (centres unmarked)",
    "parameter-measured": "cytotoxicity at 4 h, 100 µM",
    "unit-of-measure": "%",
    "reported": -8
  },
  {
    "molecule": "CCN1CCCC1CNC(=O)c1cc(OC/C=C(\\C)CCC=C(C)C)cc(OC/C=C(\\C)CCC=C(C)C)c1 (centres unmarked)",
    "parameter-measured": "cytotoxicity at 4 h, 100 µM",
    "unit-of-measure": "%",
    "reported": 29
  },
  {
    "molecule": "CCN1CCCC1CNC(=O)c1ccccc1SC/C=C(\\C)CCC=C(C)C (centres unmarked)",
    "parameter-measured": "cytotoxicity at 4 h, 100 µM",
    "unit-of-measure": "%",
    "reported": 27
  },
  {
    "molecule": "CCN1CCCC1CNC(=O)c1cc(OC/C=C(\\C)CCC=C(C)C)ccc1OC/C=C(\\C)CCC=C(C)C (centres unmarked)",
    "parameter-measured": "cytotoxicity at 4 h, 100 µM",
    "unit-of-measure": "%",
    "reported": 15
  },
  {
    "molecule": "CCN1CCCC1CNC(=O)c1cccc(OC)c1OC/C=C(\\C)CCC=C(C)C (centres unmarked)",
    "parameter-measured": "cytotoxicity at 4 h, 100 µM",
    "unit-of-measure": "%",
    "reported": 22
  },
  {
    "molecule": "CCN1CCCC1CNC(=O)c1ccccc1OC/C=C(\\C)CCC=C(C)C (centres unmarked)",
    "parameter-measured": "cytotoxicity at 4 h, 100 µM",
    "unit-of-measure": "%",
    "reported": 19
  },
  {
    "molecule": "CCN1CCCC1CNC(=O)c1ccc(OC)c(OC/C=C(\\C)CCC=C(C)C)c1 (centres unmarked)",
    "parameter-measured": "cytotoxicity at 4 h, 100 µM",
    "unit-of-measure": "%",
    "reported": 2
  }
]
